# assayedTarget: human IFN-α14 (human, UniProt P01570 24-189)
# Sequence (P01570 24-189 limits assumed): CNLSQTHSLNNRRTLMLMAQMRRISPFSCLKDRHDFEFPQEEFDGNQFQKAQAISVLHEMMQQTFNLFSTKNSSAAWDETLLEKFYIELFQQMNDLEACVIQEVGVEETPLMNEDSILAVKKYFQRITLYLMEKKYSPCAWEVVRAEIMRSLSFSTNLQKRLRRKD
# method: cell-based or functional assay
readout: IC 50 (ng/ml), ISRE dual luciferase reporter assay (ng/mL)
Field format: number, assumed ng/mL, no unit text.

Exercise: Tell me its IC 50 (ng/ml), ISRE dual luciferase reporter assay given 50E11 (antibody, human IgG1, kappa, V domains shown) VH: QVQLVQSGAEMKKPGSSVKVSCKDFGGTFSVYGVNWVRQAPGQGLEWMGGLIPVIGPANYAQKFQGRITITADESTSTAYMELSSLRFDDTAIYYCVRDDNEYWGQGTLVTVSS VL: EMVLTQSPATLSLSPGERATLSCRASQTVSTFLAWYQQKPGQVPRLLVYDISSRANGTPARFSGGGSGTDFTLTISSLELEDFAVYYCQWRSNWPPSLTFGGGTRVEIKR as the entry.
Key: 9.2

# credit: patent US20190071499A1
